Test system: BT-549 breast
Assay: NCI-60 one-dose screen, 48 h
Conditions: 10 µM unless noted
About 83,000 compounds went through this panel and 20% of them were active in at least one assay; those are over-represented in the sample as a whole. Active and inactive are the calls of the source. The calls were made as follows: active = growth percent below 10; inactive = the rest.
Respond using exactly one of the listed classes: active, inactive

CCN1Cc2nc3sc(C)c(C)c3c(=O)n2C=C1C
active
O=c1[nH]nc(-c2ccccc2)c2sc3ncc(-c4ccc(Br)cc4)n3c12
inactive
CCOC(=O)c1nc2c3ccccc3ccn2c1C(=O)OCC
inactive
CCNC(=O)Oc1ccc(/C(=C(\C)c2ccccc2)c2ccc(OCCN3CCCCC3)cc2)cc1
inactive

Task: What call does the record list for NS(=O)(=O)c1ccc(CCN2C(=O)C3C(C2=O)C2(Cl)C(Cl)=C(Cl)C3(Cl)C2(Cl)Cl)cc1 (centres undefined) ?
Output: inactive

Task: Any idea what this test logged for `Nc1n[nH]c2cccc(C#Cc3cccc(C(=O)Nc4cccc(C(F)(F)F)c4)c3)c12` ?
Output: inactive

Task: // param item: `CCNc1nc2ccc(Nc3ccnc4cc(Cl)ccc34)cc2[nH]1` ; yields the recorded call
Output: inactive

Task: GET /call?item= `N#C/C(=C\c1ccc([N+](=O)[O-])s1)c1nc2cc(Cl)ccc2s1` returns the recorded outcome of this test.
Output: active

Task: Check the results log: what was the call for `C#CCNC(=O)c1cccc2c1cc(C)n2-c1nc2c(c(NCc3ccccc3)n1)CCCC2` ?
Output: active

Task: For `O=[N+]([O-])c1cc(Br)c2cccc3c2c1CC3` , which call appears in the assay record?
Output: inactive

Task: # outcome recorded in this test, key = `Cc1ccc(-c2nc3ccccn3c2/C=C2/C(=O)Nc3cc(Cl)ccc32)cc1`
Output: inactive

Task: Hi, sorry to bother you, what did the test record for `O=C(Nc1ccccc1C(=O)N/N=C(\c1ccccc1)c1ccccn1)c1ccc(F)cc1` ?
Output: inactive

Task: Hi, sorry to bother you, what did the test record for `Cc1cc(C)c(S(=O)(=O)Oc2ccccc2[N+](=O)[O-])c(C)c1` ?
Output: inactive

Task: Which outcome was entered for the compound `Cc1nc2sccn2c1-c1cn2ccsc2n1` in this test?
Output: inactive
